Test: NCI Yeast Anticancer Drug Screen. Data for the sgs1 mgt1 strain (AID 161);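 further: 0% = growth of cultures given vehicle only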
Settings: S. cerevisiae sgs1 mgt1 strain, at 50.0 µM
Compounds without any hit were thinned out: in the full panel of roughly 79,000, 15% have a hit. Calls of active or inactive are those of the source. No stated cut-off is given here; in the data, active means growth inhibition above about 70%; inactive means the rest.
Outcome field: choose from yes (active), no (inactive)

# input # lookup: test call for COc1ccc(C(=O)O[C@H]2CC[C@@]3(C)[C@@H]4CC[C@H]5[C@]6(O)C[C@H](O)[C@@]7(O)[C@@H](CN8C[C@@H](C)CC[C@H]8[C@@]7(C)O)[C@]6(O)C[C@@]53OC24O)cc1OC
# output no

# input Hello, I am checking results. What call was entered for O=C1CC2(CCNCC2)C(=O)N1N1CCCCC1 ?
# output no

# input Field: outcome | Entry: CN=NNc1nc[nH]c1C(N)=O
# output no

# input How did this test come out for CC(=O)C(I)C(C)=O.[Cr] ?
# output no

# input Which outcome did this test record for the compound C=CC(=O)OC(C)C ?
# output no

# input Tell me the recorded outcome of this test for CCC1(O)C(=O)OCc2c1cc1n(c2=O)Cc2cc3cc(N)ccc3nc2-1 (stereo unspecified) .
# output yes

---

Test: NCI Yeast Anticancer Drug Screen. Data for the sgs1 mgt1 strain (AID 161);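 further: 0% = growth of cultures given vehicle only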
Details: S. cerevisiae sgs1 mgt1 strain, at 50.0 µM, active compounds read high
Compounds without any hit were thinned out: in the full panel of roughly 79,000, 15% have a hit.
reported_property: growth inhibition (%)
The reply should contain only the number, in %.

# input Query (molecule): O=C(O)C1CCCN1[N+](=O)[O-] (stereo not given) ; field requested: growth inhibition
# output -5.15

# input May I ask what growth inhibition has been recorded for O=c1n(CC2CS2)c2ccccc2n1CC1CS1 (stereo not given) ?
# output 4.9

# input Record request: growth inhibition value, item CCc1ccc([N+](=O)[O-])cc1
# output -19.7

# input Look up growth inhibition for this molecule: C[C@]12CC[C@H](OC(=O)Cc3ccc(N(CCCl)CCCl)cc3)CC1CC[C@@H]1C2CC[C@]2(C)NC(=O)CCC12 (stereo not given in full)
# output 15.9

# input If you can, please state the reported growth inhibition value of CCOC(OCC)c1ccc2c(c1)OCO2 .
# output 13.2

# input // query growth inhibition value for entry CCOP(=O)(OCC)/C(C#N)=C/C=C/c1ccco1
# output -30.7

# input What growth inhibition value was documented for this molecule, CCN(CC)CCn1ccc2ccccc21 ?
# output -9.85

# input Endpoint output: growth inhibition of O=C(O)C(Cl)Cl . Value?
# output 4.45

# input Give the measured growth inhibition of Nc1nc(-c2cccc(S(=O)(=O)F)c2)cs1 .
# output 55.5

# input Requested read-out: growth inhibition. Entry: CC1=C2C(=O)C(C)(C)C=C2C(=O)[C@](C)(O)C12CC2
# output 68

# input Consider the molecule shown here: CC(=O)[CH-]C(C)=O.O=[N+]([O-])O.[NH-]C1CCCCC1[NH-].[Pt+4] (stereo not given) What is its recorded growth inhibition?
# output 94.3

# input What value of growth inhibition has been reported for the following molecule? CC(C)C(Br)C(=O)O (stereo not given)
# output -21.1

# input Would you kindly share the measured growth inhibition for ClCCN(CCCl)c1ccc2c(c1)Cc1cc(Br)ccc1-2 ?
# output 40.7

# input Name the reported growth inhibition value associated with the molecule ClCCCN1CCN(c2ccccc2Cl)CC1
# output 7.45

# input For the molecule Cc1ccc(N[N+](=O)[O-])nc1 , what growth inhibition is on record?
# output -1.15

# input // lookup growth inhibition for CC(C)=CC1CC(=[N+]=[N-])C(=O)C1(C)C (stereo not given)
# output 17

# input Entry under review: COC(=O)C1C(OC(=O)c2ccccc2)CC2CCC1N2C(N)=O (stereo not given) . Reported growth inhibition?
# output -8.05

# input Would you mind telling me what growth inhibition value was observed for C[C@]12CC[C@H]3[C@@H](CC[C@H]4N(CCCl)CCC[C@]34C)[C@@H]1CC[C@@H]2O ?
# output 46.5

# input Find the recorded growth inhibition belonging to Cc1ccc(NC(=O)c2cc3ccccc3cc2O)c(C)c1 and report it.
# output 20.7

# input Any idea what its growth inhibition is? The molecule is CCC(/C=N/N=C(N)N)=N\N=C(N)N
# output -0.75

# input Entry CC(C(=O)c1ccccc1)N(C)Cc1ccccc1 (stereo not given) has what growth inhibition?
# output 6.75

# input Requested read-out: growth inhibition. Entry: C1CC[N-]CC1.CC(=N\O)/C(C)=N/O.CC(=N\O)/C(C)=N/O.CCOC(=O)CC[C-]=O.[Co+2]
# output -10.1

# input Form field: reported growth inhibition of COC(=O)CN(C)P(=O)(N1CC1)N1CC1
# output -4.1

# input growth inhibition lookup needed for CN1C2CCC1C(O)C(c1ccccc1)C2 (stereo not given) , thanks.
# output -0.05

# input State the recorded growth inhibition for this entry: CCCCCCCCCCNP(=O)(Oc1ccccc1)Oc1ccccc1
# output -16.4

The values you see were collected from PubChem BioAssay (NCI).
